The following compounds each carry a recorded log10 Ki for mouse DOR (Mus musculus).
MEASURED METRIC: log10 Ki (log10 of the value in nM)

compound="O=C(N[C@@H]1CC[C@@]2(O)[C@H]3Cc4ccc(O)c5c4[C@@]2(CCN3CC2CC2)[C@H]1O5)c1cccc2cc[nH]c12 [Compound 6]" assay_value=1.48
compound="O=C(N[C@@H]1CC[C@@]2(O)[C@H]3Cc4ccc(O)c5c4[C@@]2(CCN3CC2CC2)[C@H]1O5)c1cc2ccccc2[nH]1 [Compound 1]" assay_value=0.19
compound="O=C(N[C@H]1CC[C@@]2(O)[C@H]3Cc4ccc(O)c5c4[C@@]2(CCN3CC2CC2)[C@H]1O5)c1c[nH]c2ccccc12 [Compound 11]" assay_value=1.02
compound="O=C(CCCc1c[nH]c2ccccc12)N[C@H]1CC[C@@]2(O)[C@H]3Cc4ccc(O)c5c4[C@@]2(CCN3CC2CC2)[C@H]1O5 [Compound 18]" assay_value=0.83
compound="O=C(N[C@H]1CC[C@@]2(O)[C@H]3Cc4ccc(O)c5c4[C@@]2(CCN3CC2CC2)[C@H]1O5)c1cc2ccccc2[nH]1 [Compound 10]" assay_value=1.15
compound="O=C(Cc1c[nH]c2ccccc12)N[C@H]1CC[C@@]2(O)[C@H]3Cc4ccc(O)c5c4[C@@]2(CCN3CC2CC2)[C@H]1O5 [Compound 16]" assay_value=0.96
compound="O=C(N[C@H]1CC[C@@]2(O)[C@H]3Cc4ccc(O)c5c4[C@@]2(CCN3CC2CC2)[C@H]1O5)c1cccc2[nH]ccc12 [Compound 12]" assay_value=0.97
